- measurement.target: T1, EsCas13d, nuclease-dead (Eubacterium siraeum, UniProt B0MS50, R295A;H300A;R849A;H854A)
- T1 sequence: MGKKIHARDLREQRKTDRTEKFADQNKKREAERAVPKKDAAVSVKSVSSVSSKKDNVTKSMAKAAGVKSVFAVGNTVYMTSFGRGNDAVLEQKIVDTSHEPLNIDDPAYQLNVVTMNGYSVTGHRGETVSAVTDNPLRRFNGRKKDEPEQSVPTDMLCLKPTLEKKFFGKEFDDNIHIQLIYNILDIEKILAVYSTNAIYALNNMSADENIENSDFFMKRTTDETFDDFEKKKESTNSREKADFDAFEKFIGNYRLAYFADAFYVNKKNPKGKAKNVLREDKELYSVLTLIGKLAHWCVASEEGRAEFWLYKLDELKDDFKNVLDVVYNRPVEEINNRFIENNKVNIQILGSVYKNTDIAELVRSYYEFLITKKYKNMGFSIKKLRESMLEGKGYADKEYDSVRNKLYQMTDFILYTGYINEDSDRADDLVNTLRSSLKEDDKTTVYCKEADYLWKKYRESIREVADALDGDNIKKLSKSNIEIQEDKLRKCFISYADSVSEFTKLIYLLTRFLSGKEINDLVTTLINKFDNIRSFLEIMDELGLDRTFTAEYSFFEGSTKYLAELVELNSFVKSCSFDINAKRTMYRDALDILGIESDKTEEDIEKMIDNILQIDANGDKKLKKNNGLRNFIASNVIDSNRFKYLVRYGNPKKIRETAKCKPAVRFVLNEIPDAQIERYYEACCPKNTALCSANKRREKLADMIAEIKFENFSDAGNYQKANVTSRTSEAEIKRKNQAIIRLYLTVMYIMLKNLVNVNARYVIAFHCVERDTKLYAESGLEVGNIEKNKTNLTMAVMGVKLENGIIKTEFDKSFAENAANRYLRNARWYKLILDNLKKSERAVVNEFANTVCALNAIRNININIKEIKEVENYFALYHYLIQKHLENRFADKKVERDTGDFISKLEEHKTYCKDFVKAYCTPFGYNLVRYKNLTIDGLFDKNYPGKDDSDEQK
- protocol.text: crRNA (strand 1, pre-loaded); Mg2+; 40 mM Tris-HCl pH 7.5, 150 mM NaCl, 6 mM MgCl2, 1 mM DTT, 0.1% Tween-20, 0.2 mg/ml BSA; 25 C; 10 min per concentration, then washed
- experimental.parameters: tags: His6-TwinStrep-SUMO cleaved; N-terminal SNAP kept (SNAP-Surface 488); label: 3' end held by stalled T7 RNA polymerase
What Kd was measured for each of the following?
One number for each entry, in nM.

input: For the binder shown here, target 3 insU 3' of 22,insU 3' of 19 (mixed) RNA 1: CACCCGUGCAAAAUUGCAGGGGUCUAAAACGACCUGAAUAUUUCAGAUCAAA RNA 2: GGGAAUGGAUCCACAUCUACGAAUUCGUUUUUUGUAUCUGAAAUAUUCAGGUCUGCAGAUCGGAAGAGCACACGU , give the reported Kd.
output: 54

Consider the record given below.
input: Sample target 3 G4A,A13G (mixed) RNA 1: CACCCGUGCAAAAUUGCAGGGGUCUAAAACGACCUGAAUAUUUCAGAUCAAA RNA 2: GGGAAUGGAUCCACAUCUACGAAUUCGUUUUUGAUCUGGAAUAUUCAAGUCUGCAGAUCGGAAGAGCACACGU — what was its Kd?
output: 112
